Test system: Sagittaria trifolia
Assay: Field transplant rice test, applied 0 DAT, ST
Format: in vivo
Settings: 0 h, 0.375 Kg/Ha, 6 WAT, read-out: Percent Inhibition, ST
parameter measured: inhibition at 375 g/ha (%)

>>> recorded_result("CCCCOCN(C(=O)CCl)c1c(C)cccc1C(C)(C)C [Compound C]")
0
>>> recorded_result("CCCCOc1cccc(CC)c1N(C)C(=O)CCl [Example 1]")
5
>>> recorded_result("CCCCOCN(C(=O)CCl)c1c(CC)cccc1CC [Compound A]")
7
>>> recorded_result("CCCOCCN(C(=O)CCl)c1c(CC)cccc1CC [Compound D]")
0
>>> recorded_result("CCCCOCCN(C(=O)CCl)c1c(CC)cccc1CC [Compound B]")
5

###

System: Cyperus serotinus
Assay: Field transplant rice test, applied 0 DAT, CS
Format: in vivo
Conditions: 0 h, 3.0 Kg/Ha, 2 WAT, read-out: Percent Inhibition, CS
parameter measured: inhibition at 3000 g/ha

>>> recorded_result("CCCOCCN(C(=O)CCl)c1c(CC)cccc1CC")
"67%"
>>> recorded_result("CCCCOCN(C(=O)CCl)c1c(CC)cccc1CC")
"73%"
>>> recorded_result("CCCCOCN(C(=O)CCl)c1c(C)cccc1C(C)(C)C")
"95%"
>>> recorded_result("CCCCOc1cccc(CC)c1N(C)C(=O)CCl")
"95%"
>>> recorded_result("CCCCOCCN(C(=O)CCl)c1c(CC)cccc1CC")
"72%"
